The measured values listed here are drawn from the supplement of paper PMC11865577.

system: G-clamp-N3 (biotin conjugate); experiment: pull-down binding Z-score (relative to library population); higher = stronger binding; settings: RNA library: Library-1 (pre-miRNA loops + repeats)
metricName: pull-down binding Z-score

> print(dat)
                            orderedresidues                         target                 metricname  quantitativereadout
1     UGCUAUUAGAAAGUAAUGGCA [hsa-mir-548ba]  G-clamp-N3 (biotin conjugate)  pull-down binding Z-score                0.465
2  UUCUGUUGUCAGAAAGAAGAGAA [hsa-mir-1283-1]  G-clamp-N3 (biotin conjugate)  pull-down binding Z-score                0.462
3  CUCUCCUGACCAGCUGAGCUGGAGGAGAG [hsa-mir-3160-2]  G-clamp-N3 (biotin conjugate)  pull-down binding Z-score                 1.35
4   GGCACCUACGAUACCCAGUGCC [hsa-mir-3116-2]  G-clamp-N3 (biotin conjugate)  pull-down binding Z-score               -0.645
5      CACUCAGGCAGUGCCAUGAGC [hsa-mir-6811]  G-clamp-N3 (biotin conjugate)  pull-down binding Z-score                -0.12
6  CUGCCCCUCGAAUCUGCUCCACGAUUUGGGCAG [hsa-mir-4436a]  G-clamp-N3 (biotin conjugate)  pull-down binding Z-score                0.401
7  UCACAAUUGCGCUACAGAACUGUUGA [hsa-mir-203b]  G-clamp-N3 (biotin conjugate)  pull-down binding Z-score                0.254
8  UUAUUUGAGAUGAGUUACAUCUUGGAGG [hsa-mir-1204]  G-clamp-N3 (biotin conjugate)  pull-down binding Z-score               -0.564
9                UCCCCUCAGGA [hsa-mir-5703]  G-clamp-N3 (biotin conjugate)  pull-down binding Z-score                 0.99

====

tested on: TO-N3-2 (biotin conjugate); test: pull-down binding Z-score (relative to library population); higher = stronger binding; settings: RNA library: Library-2
Reported pull-down binding Z-score by item:
metricName: pull-down binding Z-score

> print(dat)
                            orderedresidues                      target                 metricname  quantitativereadout
1  UAGCUGUACCCUAUAAUAUGAGAGUUAUACAUUUUGGUGCUGGUUCUGAUAAAGGAGUUGCACCAGGUACAGCUG  TO-N3-2 (biotin conjugate)  pull-down binding Z-score               -0.588
2  AUGAUAUAUUGUGAGAGCCAUGUCAU [hsa-mir-6718]  TO-N3-2 (biotin conjugate)  pull-down binding Z-score               -0.393
3          CUCACCAUAGUGGUGGA [hsa-mir-1288]  TO-N3-2 (biotin conjugate)  pull-down binding Z-score               -0.588
4  AUUGACAUUAAUGGCAAUCUUCAUCCAGAUUCUGCCACUCUUGUUAGU [DMSMaPseq_invitro_SARS-CoV-2_Motif_73]  TO-N3-2 (biotin conjugate)  pull-down binding Z-score               -0.113
5  GCUGAAACACAGUUGGUUUGUGUACACUGGC [hsa-mir-24-2]  TO-N3-2 (biotin conjugate)  pull-down binding Z-score             -0.00258
6            GAGUCAGAAAAACUAC [hsa-mir-601]  TO-N3-2 (biotin conjugate)  pull-down binding Z-score                0.271
7  CAUGAGCCCUUUGGAAAGGUCUCGUG [hsa-mir-4711]  TO-N3-2 (biotin conjugate)  pull-down binding Z-score               -0.478

====

Reported pull-down binding Z-score by item:
test system: TO-N3 (biotin conjugate); experiment: pull-down binding Z-score (relative to library population); higher = stronger binding; conditions: RNA library: Library-2
metricName: pull-down binding Z-score

> print(dat)
                             orderedresidues  quantitativereadout
 1   UCCGUAAGUAGGAUACUUACCUG [U1snRNP5ss-21]                -0.61
 2        UGAAAGGUUUUUUCUCUCA [hsa-mir-4797]               -0.402
 3      CGGACGUUGCUCUCUACCCCG [hsa-mir-1247]                0.839
 4  UUGUCUCCUCAAGUUGCGACGAGACAG [hsa-mir-4645]               -0.358
 5          CAGUUGUACUGUGGCUG [hsa-mir-1291]                0.076
 6                              ACAGAAUGCUGU                -1.14
 7  CUUGAUUUAAAUGUCCAUACAAUUAAG [hsa-mir-124-1]               -0.179
 8     UCCAGGGCUCCUGACACCUGGA [hsa-mir-6861]               -0.785
 9  GAAGAAGAAGAAGAAGAAGAAGAAGAAGAAGAAGAAGAAGAAGAAGAA [r(GAA)16]                 3.53
10  CUCGGGUGGAUAAGUCUGAUCUGAG [hsa-mir-3663]               -0.554
11      CAAACCGGACCUGAGCGUUUUG [hsa-mir-375]                 1.08
12  UGUGAUUUUAAUAGCUUCUUAGGAGAAUGACA [SHAPE_invivo_SARS-CoV-2_Motif_573]               -0.641
13  CCAUUAUUGCUACUGUUCAGCAGGUGCUGCUGGUGGUGAUGG [hsa-mir-1260b]                0.244
14      CGGAAUUCUCCAGAGCCUCUG [hsa-mir-6889]                0.453
15                 UUUUCUGGGA [hsa-mir-4456]               -0.484

====

Reported pull-down binding Z-score by item:
system: TO-3-N3 (biotin conjugate); assay: pull-down binding Z-score (relative to library population); higher = stronger binding; conditions: RNA library: Library-2
metricName: pull-down binding Z-score

> print(dat)
                            orderedresidues  quantitativereadout
1  UGUACAUCUUCUUUGCAUCAUUUUAUUAUGUAUGGAAAAGUUAUGUGCA [SHAPE_invitro_SARS-CoV-2_Motif_147]               -0.791
2  AGUCCCUGUUGCUAUUCAUGCAGAUCAACUUACUCCUACUUGGCGUGUUUAUUCUACAGGUUCUAAUGUUUUUCAAACACGUGCAGGCUGUUUAAUAGGGGCU               -0.948
3  GAAAUUUGACACCUUCAAUGGGGAAUGUCCAAAUUUU [SHAPE_invitro_SARS-CoV-2_Motif_22]               -0.726

====

test system: TO-3-N3 (biotin conjugate); experiment: pull-down binding Z-score (relative to library population); higher = stronger binding; conditions: RNA library: Library-2
metricName: pull-down binding Z-score

> print(dat)
                            orderedresidues                      target  quantitativereadout
1  GGGAGAGACGAACAGUCGAUUGCC [IAV_invivo_PB2_1_Motif_17+IAV_invivo_PB2_1_Motif_17]  TO-3-N3 (biotin conjugate)               -0.434
2  GGUGUUUUAACUGCUGUGGUUAUACCUACUAAAAAGGCUGGUGGCACUACUGAAAUGCU  TO-3-N3 (biotin conjugate)                -0.83
3            UGGCCAUUUCCUACCA [hsa-mir-617]  TO-3-N3 (biotin conjugate)                -0.72
4  CAUUUCCUUCAUGAUUAGGAAUACUACUUUGAAAUG [hsa-mir-4712]  TO-3-N3 (biotin conjugate)               -0.641
5       GCUGCUUGCACUCGUUCAGC [hsa-mir-3661]  TO-3-N3 (biotin conjugate)              -0.0975
6          GGUUGCUGGAGGUCAGC [hsa-mir-6871]  TO-3-N3 (biotin conjugate)                0.155
7  GACAUUUUAUCUUACUAAUGAUGUUUCUUUUUUAGCACAUAUUCAGUGGAUGGUUAUGUU [DMSMaPseq_invitro_SARS-CoV-2_Motif_175]  TO-3-N3 (biotin conjugate)               0.0838
8       AUAAUACGGAUUACGUUGUUA [hsa-mir-137]  TO-3-N3 (biotin conjugate)               -0.188
9      UAGAGUAGGAGAGCCCACUGA [hsa-mir-6846]  TO-3-N3 (biotin conjugate)                0.712
